Test system: carrageenin-induced edema
Assay Remarks: Carrageenin-induced edema (antiinflammatory) assay, rat hind paw
Assay type: in vivo, rat (Long Evans strain, male)
Condition Description: Rattus norvegicus; 200 mg/kg oral, 1 hour before carrageenin; edema at peak swelling time (3 hrs.); read-out: % Reduction of Edema
Each entry gets Condition not met if its inhibition in vivo at 200 mg/kg stays under 40%, and Condition met if its inhibition in vivo at 200 mg/kg is 40% or above.

INSERT INTO results (molecule, classification) VALUES
  ('COCc1nnc2nc(-c3ccccc3)cnn12 [Example 2]', 'Condition not met'),
  ('Cc1nc2nnc(C)n2nc1C [Example 25]', 'Condition met'),
  ('Clc1ccccc1-c1cnn2cnnc2n1 [Example 36]', 'Condition met'),
  ('Cc1nnc2nc(-c3ccccc3)cnn12 [Example 12]', 'Condition met'),
  ('CC(C)c1nnc2nc(-c3ccc(Cl)c(Cl)c3)cnn12 [Example 6]', 'Condition not met'),
  ('Cc1nnc2nc(-c3ccccc3Cl)cnn12 [Example 26]', 'Condition met'),
  ('Oc1nnc2nc(-c3ccccc3)cnn12 [Example 3]', 'Condition not met'),
  ('CC(C)c1nnc2nc(-c3ccccc3)cnn12 [Example 4]', 'Condition not met'),
  ('c1ccc(-c2nc3nncn3nc2-c2ccccc2)cc1 [Example 22]', 'Condition not met');

---

Entries annotated with measured inhibition in vivo at 200 mg/kg
Tested on: carrageenin-induced edema
Assay Remarks: Carrageenin-induced edema (antiinflammatory) assay, rat hind paw
Type: in vivo, rat (Long Evans strain, male)
Condition Description: Rattus norvegicus; 200 mg/kg oral, 1 hour before carrageenin; edema at peak swelling time (3 hrs.); read-out: % Reduction of Edema
Parameter Measured: inhibition in vivo at 200 mg/kg (%)

INSERT INTO assay_data (test_smiles, measured) VALUES
  ('Clc1ccc(-c2cnn3cnnc3n2)cc1Cl', 36),
  ('CC(C)c1nnc2nc(-c3ccccc3)c(-c3ccccc3)nn12', 37),
  ('Clc1cccc(-c2cnn3cnnc3n2)c1', 21),
  ('Clc1ccc(-c2cnn3cnnc3n2)cc1', 27),
  ('FC(F)(F)c1nnc2nc(-c3ccccc3)cnn12', 30),
  ('Cc1nnc2nc(-c3ccccc3)c(-c3ccccc3)nn12', 35);

Origin of the recorded values: patent US4405619A
